assayed.system: UniProt:P31153
Sequence (P31153 whole entry): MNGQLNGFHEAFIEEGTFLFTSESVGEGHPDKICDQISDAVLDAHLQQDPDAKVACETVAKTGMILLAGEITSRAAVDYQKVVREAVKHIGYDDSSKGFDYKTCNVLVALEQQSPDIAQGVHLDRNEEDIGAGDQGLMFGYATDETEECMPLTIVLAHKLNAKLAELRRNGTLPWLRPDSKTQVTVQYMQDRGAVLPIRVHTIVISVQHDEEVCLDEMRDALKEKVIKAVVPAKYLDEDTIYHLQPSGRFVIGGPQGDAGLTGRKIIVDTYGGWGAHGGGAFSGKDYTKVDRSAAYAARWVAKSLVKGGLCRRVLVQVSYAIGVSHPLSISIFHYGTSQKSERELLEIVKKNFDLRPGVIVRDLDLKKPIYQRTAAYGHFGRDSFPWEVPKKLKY
experimental.readout: Kd
Just so you know, I need the unit written after the number.

// query State, in one line, measured Kd of CC(=O)O[C@@H]1CC[C@@]2(C)[C@@H](CC[C@]3(C)[C@@H]2C(=O)C=C2[C@@H]4[C@@H](C)[C@H](C)CC[C@]4(C)CC[C@]23C)[C@@]1(C)C(=O)O [compound 1, AKBA]
// result 129 nM
